Experiment: In-vitro metabolism of LDAA compounds using liver microsomes
Format: in vitro ADME, human
Conditions: incubation time 45 minutes; 1.0E−07M
Structures can show the parent of a compound that is named as a salt. Non-standard residues stand in square brackets, D forms with d. Residues, ends and D or L forms follow the SMILES beside them. Dopa = N[C@@H](Cc1ccc(O)c(O)c1)C(=O)O

{"Compound": "N[C@@H](CSC[C@@H](NC(=O)[C@@H](N)Cc1ccc(O)c(O)c1)C(=O)O)C(=O)O (single isomer, unassigned; peak 1) [LD-LA1 TFA salt, Levodopa Lanthionine Peak 1 TFA Salt]", "% Compound Remaining 2nd, %": 77.9}
{"Compound": "NC(=O)C[C@H](NC(=O)[C@@H](N)Cc1ccc(O)c(O)c1)C(=O)O [LD-Asn TFA salt, Levodopa Asparagine TFA Salt] (H-[Dopa]-Asn-OH)", "% Compound Remaining 2nd, %": 59.7}
{"Compound": "N[C@@H](Cc1ccc(O)c(O)c1)C(=O)N[C@@H](Cc1ccc(O)cc1)C(=O)O [LD-Tyr TFA salt, Levodopa Tyrosine TFA Salt] (H-[Dopa]-Tyr-OH)", "% Compound Remaining 2nd, %": 104.1}
{"Compound": "NC(=O)CC[C@H](NC(=O)[C@@H](N)Cc1ccc(O)c(O)c1)C(=O)O [LD-Gln TFA salt, Levodopa Glutamine TFA Salt] (H-[Dopa]-Gln-OH)", "% Compound Remaining 2nd, %": 94.1}
{"Compound": "N[C@@H](Cc1ccc(O)c(O)c1)C(=O)N[C@@H](Cc1c[nH]c2ccccc12)C(=O)O [LD-Trp TFA salt, Levodopa Tryptophan] (H-[Dopa]-Trp-OH)", "% Compound Remaining 2nd, %": 63.1}
{"Compound": "N[C@@H](Cc1ccc(O)c(O)c1)C(=O)O [LD (control), L-3,4-dihydroxyphenylalanine, reference compound]", "% Compound Remaining 2nd, %": 78}
{"Compound": "N[C@@H](CSC[C@H](NC(=O)[C@@H](N)Cc1ccc(O)c(O)c1)C(=O)O)C(=O)O (single isomer, unassigned; peak 2) [LD-LA2 TFA salt, Levodopa Lanthionine Peak 2 TFA Salt]", "% Compound Remaining 2nd, %": 102}
{"Compound": "N[C@@H](Cc1ccc(O)c(O)c1)C(=O)NCC(=O)O [LD-Gly TFA salt, Levodopa Glycine TFA Salt]", "% Compound Remaining 2nd, %": 56.4}

###

Test: In-vitro absorption, Caco-2 A-B permeability
Assay type: in vitro ADME, human
Settings: human, Caco-2, pH 7.4, Caco-2 A-B; without verapamil; read-out: Percent Recovery 2nd
Counter-ions that a name gives are not always drawn. Non-standard residues stand in square brackets, D forms with d. Residues, ends and D or L forms follow the SMILES beside them. Dopa = N[C@@H](Cc1ccc(O)c(O)c1)C(=O)O
Each item that follows carries a reported recovery at 60 min, 10 μM.

{"Molecule": "NC(=O)C[C@H](NC(=O)[C@@H](N)Cc1ccc(O)c(O)c1)C(=O)O [LD-Asn TFA salt, Levodopa Asparagine TFA Salt] (H-[Dopa]-Asn-OH)", "recovery at 60 min, 10 μM": "78%"}
{"Molecule": "N=C(N)NCCC[C@H](NC(=O)[C@@H](N)Cc1ccc(O)c(O)c1)C(=O)O [LD-Arg TFA salt, Levodopa Arginine TFA Salt]", "recovery at 60 min, 10 μM": "26%"}
{"Molecule": "NC(=O)CC[C@H](NC(=O)[C@@H](N)Cc1ccc(O)c(O)c1)C(=O)O [LD-Gln TFA salt, Levodopa Glutamine TFA Salt] (H-[Dopa]-Gln-OH)", "recovery at 60 min, 10 μM": "70%"}
{"Molecule": "N[C@@H](Cc1ccc(O)c(O)c1)C(=O)N[C@@H](Cc1c[nH]c2ccccc12)C(=O)O [LD-Trp TFA salt, Levodopa Tryptophan] (H-[Dopa]-Trp-OH)", "recovery at 60 min, 10 μM": "51%"}
{"Molecule": "N[C@@H](Cc1ccc(O)c(O)c1)C(=O)NCC(=O)O [LD-Gly TFA salt, Levodopa Glycine TFA Salt]", "recovery at 60 min, 10 μM": "62%"}
{"Molecule": "N[C@@H](CSC[C@H](NC(=O)[C@@H](N)Cc1ccc(O)c(O)c1)C(=O)O)C(=O)O (single isomer, unassigned; peak 2) [LD-LA2 TFA salt, Levodopa Lanthionine Peak 2 TFA Salt]", "recovery at 60 min, 10 μM": "91%"}
{"Molecule": "NCCCC[C@H](NC(=O)[C@@H](N)Cc1ccc(O)c(O)c1)C(=O)O [LD-Lys TFA salt, Levodopa Lysine TFA Salt] (H-[Dopa]-Lys-OH)", "recovery at 60 min, 10 μM": "38%"}

###

Assay: Comparative formulation tests, physical stability (Tables 32a-c, 33a-c)
Type: physicochemical
Conditions: NB 144-18, ~0.4% Asc + ~0.4% NAC; LDAA TFA salt/CD formulation; Day 6, room temperature after two days at 2-8° C.
Counter-ions that a name gives are not always drawn. Non-standard residues stand in square brackets, D forms with d. Residues, ends and D or L forms follow the SMILES beside them. Dopa = N[C@@H](Cc1ccc(O)c(O)c1)C(=O)O
Attribute Measured: Physical stability (visual), Day 6

{"Compound": "N[C@@H](CSC[C@@H](NC(=O)[C@@H](N)Cc1ccc(O)c(O)c1)C(=O)O)C(=O)O (single isomer, unassigned; peak 1) [LD-LA1 TFA salt, Levodopa Lanthionine Peak 1 TFA Salt]", "Attribute Measured": "Physical stability (visual), Day 6", "Readout Value": "Precipitated"}
{"Compound": "NCCCC[C@H](NC(=O)[C@@H](N)Cc1ccc(O)c(O)c1)C(=O)O [LD-Lys TFA salt, Levodopa Lysine TFA Salt] (H-[Dopa]-Lys-OH)", "Attribute Measured": "Physical stability (visual), Day 6", "Readout Value": "Precipitated"}
{"Compound": "N[C@@H](Cc1ccc(O)c(O)c1)C(=O)N[C@@H](Cc1c[nH]c2ccccc12)C(=O)O [LD-Trp TFA salt, Levodopa Tryptophan] (H-[Dopa]-Trp-OH)", "Attribute Measured": "Physical stability (visual), Day 6", "Readout Value": "Stable"}
{"Compound": "N[C@@H](Cc1ccc(O)c(O)c1)C(=O)N[C@@H](CC(=O)O)C(=O)O [LD-Asp TFA salt, Levodopa Aspartic Acid] (H-[Dopa]-Asp-OH)", "Attribute Measured": "Physical stability (visual), Day 6", "Readout Value": "Stable"}
{"Compound": "N[C@@H](Cc1ccc(O)c(O)c1)C(=O)N[C@@H](Cc1ccc(O)cc1)C(=O)O [LD-Tyr TFA salt, Levodopa Tyrosine TFA Salt] (H-[Dopa]-Tyr-OH)", "Attribute Measured": "Physical stability (visual), Day 6", "Readout Value": "Stable"}
{"Compound": "N=C(N)NCCC[C@H](NC(=O)[C@@H](N)Cc1ccc(O)c(O)c1)C(=O)O [LD-Arg TFA salt, Levodopa Arginine TFA Salt]", "Attribute Measured": "Physical stability (visual), Day 6", "Readout Value": "Stable"}

###

Each item that follows carries a reported microsomal CLint at 0.1 μM.
Experiment: In-vitro metabolism of LDAA compounds using liver microsomes
Format: in vitro ADME, human
Details: both sexes, human, pooled human liver microsomes, pH 7.4; calculated from the half-life; 1.0E−07M
Structures can show the parent of a compound that is named as a salt. Non-standard residues stand in square brackets, D forms with d. Residues, ends and D or L forms follow the SMILES beside them. Dopa = N[C@@H](Cc1ccc(O)c(O)c1)C(=O)O

{"Molecule": "N[C@@H](Cc1ccc(O)c(O)c1)C(=O)N[C@@H](Cc1c[nH]c2ccccc12)C(=O)O [LD-Trp TFA salt, Levodopa Tryptophan] (H-[Dopa]-Trp-OH)", "microsomal CLint at 0.1 μM": "< 116 µL/min/mg"}
{"Molecule": "N[C@@H](CSC[C@H](NC(=O)[C@@H](N)Cc1ccc(O)c(O)c1)C(=O)O)C(=O)O (single isomer, unassigned; peak 2) [LD-LA2 TFA salt, Levodopa Lanthionine Peak 2 TFA Salt]", "microsomal CLint at 0.1 μM": "< 116 µL/min/mg"}
{"Molecule": "N[C@@H](Cc1ccc(O)c(O)c1)C(=O)O [LD (control), L-3,4-dihydroxyphenylalanine, reference compound]", "microsomal CLint at 0.1 μM": "< 116 µL/min/mg"}
{"Molecule": "N=C(N)NCCC[C@H](NC(=O)[C@@H](N)Cc1ccc(O)c(O)c1)C(=O)O [LD-Arg TFA salt, Levodopa Arginine TFA Salt]", "microsomal CLint at 0.1 μM": "166 µL/min/mg"}
{"Molecule": "N[C@@H](CSC[C@@H](NC(=O)[C@@H](N)Cc1ccc(O)c(O)c1)C(=O)O)C(=O)O (single isomer, unassigned; peak 1) [LD-LA1 TFA salt, Levodopa Lanthionine Peak 1 TFA Salt]", "microsomal CLint at 0.1 μM": "< 116 µL/min/mg"}
{"Molecule": "NC(=O)CC[C@H](NC(=O)[C@@H](N)Cc1ccc(O)c(O)c1)C(=O)O [LD-Gln TFA salt, Levodopa Glutamine TFA Salt] (H-[Dopa]-Gln-OH)", "microsomal CLint at 0.1 μM": "< 116 µL/min/mg"}
{"Molecule": "N[C@@H](Cc1ccc(O)c(O)c1)C(=O)NCC(=O)O [LD-Gly TFA salt, Levodopa Glycine TFA Salt]", "microsomal CLint at 0.1 μM": "128 µL/min/mg"}
{"Molecule": "NC(=O)C[C@H](NC(=O)[C@@H](N)Cc1ccc(O)c(O)c1)C(=O)O [LD-Asn TFA salt, Levodopa Asparagine TFA Salt] (H-[Dopa]-Asn-OH)", "microsomal CLint at 0.1 μM": "< 116 µL/min/mg"}
{"Molecule": "N[C@@H](Cc1ccc(O)c(O)c1)C(=O)N[C@@H](Cc1ccc(O)cc1)C(=O)O [LD-Tyr TFA salt, Levodopa Tyrosine TFA Salt] (H-[Dopa]-Tyr-OH)", "microsomal CLint at 0.1 μM": "< 116 µL/min/mg"}
{"Molecule": "NCCCC[C@H](NC(=O)[C@@H](N)Cc1ccc(O)c(O)c1)C(=O)O [LD-Lys TFA salt, Levodopa Lysine TFA Salt] (H-[Dopa]-Lys-OH)", "microsomal CLint at 0.1 μM": "< 116 µL/min/mg"}
